The reported measurements were obtained from ChEMBL document CHEMBL5029169.

Molecular target: Protein kinase C alpha type (Homo sapiens)
Experiment: Inhibition of PRKCA (unknown origin) at 1 uM measured after 1 hr relative to control
Measured Quantity: inhibition (%)
Just the number in %, nothing appended.

Line Notation: C=CC(=O)N1CCC2(CC1)CNC(=O)c1cc(-c3ccnc(Nc4ccccc4OC)c3)[nH]c12
Numeric Value: 14

inhibition of C=CC(=O)Nc1cc(Nc2nccc(-c3cn(C)c4ccccc34)n2)c(OC)cc1N(C)CCN(C)C on Protein kinase C alpha type (Homo sapiens)? 4

* * *

Target: Dual specificity mitogen-activated protein kinase kinase 1 (Homo sapiens) (UniProt Q02750)
Sequence (Q02750 whole entry): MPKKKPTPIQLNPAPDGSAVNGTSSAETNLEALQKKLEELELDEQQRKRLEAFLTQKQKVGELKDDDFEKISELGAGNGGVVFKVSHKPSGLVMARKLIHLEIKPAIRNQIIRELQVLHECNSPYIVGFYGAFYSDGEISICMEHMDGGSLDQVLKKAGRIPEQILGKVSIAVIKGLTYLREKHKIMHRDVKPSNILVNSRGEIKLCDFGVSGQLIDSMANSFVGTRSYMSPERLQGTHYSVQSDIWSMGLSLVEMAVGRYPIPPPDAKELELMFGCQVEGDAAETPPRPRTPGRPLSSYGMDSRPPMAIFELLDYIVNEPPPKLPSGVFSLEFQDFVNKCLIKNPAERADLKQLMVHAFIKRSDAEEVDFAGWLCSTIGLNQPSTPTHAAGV
Assay: Inhibition of MAP2K1 (unknown origin) at 1 uM measured after 1 hr relative to control
Binary classification by inhibition, with 70% as an inclusive lower bound for 1.0; all other cases are 0.0.

See these solved cases before continuing.
Line Notation: C=CC(=O)Nc1cc(Nc2nccc(-c3cn(C)c4ccccc34)n2)c(OC)cc1N(C)CCN(C)C
Cat: 0.0
//
Line Notation: C=CC(=O)N1CCC2(CC1)CNC(=O)c1cc(-c3ccnc(Nc4ccccc4OC)c3)[nH]c12
Cat: 1.0
//
Line Notation: C=CC(=O)N1CCC2(CC1)CNC(=O)c1cc(-c3nc(Nc4ccccc4OC)ncc3C)[nH]c12
Cat: 1.0

Hi, just wondering whether C=CC(=O)N1CCC2(CC1)CNC(=O)c1cc(-c3ccnc(Nc4ccccc4OC(C)C)n3)[nH]c12 shows inhibition of 70% or higher. 0.0
